assayRemarks: BET inhibitor-based combinations targeting novel dependencies in MECOM-rearranged (r) AML: AML-191 cell line (AID 2202236; also: nearly all actives have a fitted effect of over 35% in size; also: potency is read from the fitted curve at half-maximal effect)
particulars: AML-191 viability, CellTiter-Glo luminescence, 48 h; series mostly up to 46 µM
Records with an inconclusive call do not appear. Activity calls are given as the source filed them. Calls follow the shape of the dose curve; as a rule, active = well fitted inhibition curve with a large enough effect; inconclusive = small, poorly fitted or top-dose-only effect; inactive = flat fitted curve, though single readings scatter.
measuredAttribute: Potency

Example cases with answers are listed next.
compound	measuredAttribute	recordedResult
COc1ncc(-c2ccc3nccc(-c4ccnnc4)c3c2)cc1NS(=O)(=O)c1ccc(F)cc1F	Potency	0.209 µM (active)
C[C@H]1[C@@H](OC(=O)CCC(=O)O)O[C@@H]2O[C@@]3(C)CC[C@@H]4[C@H](C)CC[C@@H]1[C@@]24OO3	Potency	5.25 µM (active)
OCCNC1CCCc2c1[nH]c1ccc(-c3ccccc3)cc21 (centres undefined)	Potency	16.6 µM (active)
Cc1c(-c2cnccn2)ssc1=S	Potency	inactive
O=C(Nc1cccnc1)c1cc(-c2ccnc(F)c2)ccc1OCc1ccccc1	Potency	inactive
CC(=NNC(=O)c1cccc(S(=O)(=O)N2CCOCC2)c1)c1cc(Cl)ccc1O	Potency	2.09 µM (active)

Q) Can you share its Potency? I mean this compound: COc1ccc2c(c1)CC[C@@H]1[C@@H]2CC[C@]2(C)[C@@H](NCCCCCCN3C(=O)C=CC3=O)CC[C@@H]12
A) inactive

Q) Need Potency of CCC(=O)OCC(=O)C1(OC(=O)CC)C(C)CC2C3CCC4=CC(=O)C=CC4(C)C3(F)C(O)CC21C (centres undefined) , thanks.
A) inactive

Q) Tell me the measured Potency of C[C@H]1[C@H](O)O[C@@H]2O[C@@]3(C)CC[C@H]4[C@H](C)CC[C@@H]1[C@@]24OO3 , please.
A) 2.95 µM (active)

Q) Consider the compound shown here: C=C1C(=O)O[C@@H]2[C@H]3C(C)=CC[C@@]34O[C@@]4(C)CC[C@@H]12 What is its recorded Potency?
A) 13.2 µM (active)

Q) Could you share which Potency value was measured for CCNCCc1ccc(CN(CC)c2cc(OC)ccc2[C@@H]2CCc3cc(O)ccc3C2)cc1 ?
A) 7.42 µM (active)

Q) I have this compound here, COC(=O)N(CC(=O)O)Cc1cccc(OCc2nc(-c3ccc(Cl)cc3)oc2C)c1 , and I need its recorded Potency.
A) inactive
